Target: pentameric gH complex on infectious CMV (neutralization assays) (human cytomegalovirus)
Experiment: cell-based or functional assay
Parameter: IC50 in ARPE-19 (ng/mL)
Please give a number only; it is taken to be in ng/mL.

1-85 (antibody, V domains shown) VH: QVHLVESGGGLVKPGRSLRLSCAASGFTFSDYYMAWIRQVPGKGLEWVSFISSSGRTIYYADSVKGRFTISRDNAKDSLYLQMHSLRAEDTAVYYCARDSYSKLVDIEAIEAFDIWGRGTMVTVSS VL: SYELAQPPSVSVAPGKTATIACGGDNIGGKSVHWYLQKAGQAPVLVISYDSDRPSGIPERFSGSNSGNTATLTISRVEAGDEADYFCQVWDRHGDHVVFGGGTKLTVL : 0.13
1-103 (antibody, V domains shown) VH: QLQLQESGPGLVKPSETLSLTCSVSGDAISGSNYYWGWIRQPPGKGLQWIGSIYHTGSTFYNPSFSSRVTLSVDTSKNQFSLKLISVNAADTAVYYCARRIRGYSGTYDWGQGTLVTVSS VL: DIQLTQSPSFLSASVGDRVTITCRASQDISSYVAWYQQKPGNAPKLLISSASTLPSGVPSRFSGSRSGTDFTLTISSLQPEDFATYYCQQLNNFGPGTTVDIK : 0.88

Please examine the following record next.
# IC50 in ARPE-19 of 1-32 (antibody, V domains shown) VH: QVKLVESGGGVVQPGRSLRLSCAGSGFAFDNYAMHWVRQAPGKGLEWVAVISLEGRNKYYAGPAKGRFSISRDNSRNTVHLQMNSLRPEDTAVYFCARDMRYYYDSNGHYRNRYGMDVWGQGTTVIVSS VL: DIQMTQSPSSLSASVGDSVTITCQASQDINQFVSWYQQKPGKPPKLLIYDASNLESGVPSRFSGSGSGTHFTFTISSLQPDDIATYYCQQYENLFTFGPGTKVDIK = 0.82

Source: patent US11230591
